subject_of_test: T1, FGFR2 kinase domain K518I (catalytically inactive, non-phosphorylatable) (UniProt P21802-3 465-764, K518I)
T1 construct: FGFR2 (IIIb isoform) kinase domain, residues 465-764; numbers count on: FGFR2IIIb (C1 isoform, 822 residues); also called KD^K518I; source: E. coli BL21(DE3), purified (Talon, Superdex 75)
test_protocol: MST; JM labelled with Atto 488, serial dilutions of KD titrated, 25 °C; 20 mM HEPES, 150 mM NaCl, 1 mM TCEP, 0.01% Tween 20, pH 7.5; the text calls the constant of KD^pY1 apparent (Kd,app)
conditions: both partners purified
pKd: −log10 of the molar value. Where no end group is shown, it is not given here.
property_name: pKd

- binder: "FGFR2 juxtamembrane region (407-462), labelled with Atto 488 (peptide, UniProt P21802-3 407-462, looked up, also: labelled with Atto 488, FGFR2 (IIIb isoform) juxtamembrane region, residues 407-462; numbers count on: FGFR2IIIb (C1 isoform, 822 residues); also called JM; 407Juxtamembrane region462; source: synthetic peptide, bought: Genscript) KPDFSSQPAVHKLTKRIPLRRQVTVSAESSSSMNSNTPLVRITTRLSSTADTPMLA"
  property_name: "pKd"
  readout_number: 4.87
